# method description: Cytotoxicity against human MT4 cells assessed as decrease in cell proliferation after 5 days by XTT assay
# Format: cell-based
measured quantity: CC50 at 120 h

Entry under review: CNC(=O)[C@@H](NC(=O)[C@@](O)(CCN(Cc1ccc(Br)cc1)NC(=O)[C@@H](NC(=O)OC)C(C)(C)C)Cc1ccccc1)C(C)(C)C . Reported CC50 at 120 h?
> 10 µM

Next up: COC(=O)N[C@H](C(=O)NN(CC[C@@](O)(Cc1ccccc1)C(=O)N[C@H]1c2ccccc2C[C@H]1O)Cc1ccc(-c2ccccn2)cc1)C(C)(C)C
> 10 µM

Next up: COC(=O)N[C@H](C(=O)NN(CC[C@@](O)(Cc1ccccc1)C(=O)N[C@H]1c2ccccc2C[C@H]1O)Cc1ccc(-c2ccccc2)cc1)C(C)(C)C
> 10 µM
